# TARGET_SYSTEM: lysozyme c (Lzm-S) (Canis lupus familiaris, UniProt P81709)
# Construct: Lzm-S was purified in a manner described by Grobler et al (14); from tissue
# Sequence (P81709 whole entry): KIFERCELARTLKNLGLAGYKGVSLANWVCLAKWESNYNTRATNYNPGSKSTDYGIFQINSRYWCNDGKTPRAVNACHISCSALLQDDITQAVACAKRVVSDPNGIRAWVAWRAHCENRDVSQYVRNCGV
# METHOD_SUMMARY: Inhibition of Lzm-S's myocardial depressant activity (isometric tension) in right ventricular trabecular preparation
# Type: cell-based, dog
# RECORDED_CONDITIONS: Lzm-S 10^−7M; sugar 10^−3M added before Lzm-S
READOUT_TYPE: Isometric tension following pre-treatment with sugar

Qu. Which Isometric tension following pre-treatment with sugar value belongs to CC(=O)N[C@H]1C(O)O[C@H](CO)[C@@H](O)[C@@H]1O (some centres unmarked) ?
Ans. 44±2 % of baseline

Qu. May I ask what Isometric tension following pre-treatment with sugar has been recorded for CC(=O)N[C@H]1C(O)O[C@H](CO)[C@@H](O[C@@H]2O[C@H](CO)[C@H](O)[C@H](O)[C@H]2O)[C@@H]1O (some centres unmarked) ?
Ans. 48±1 % of baseline

Qu. Reported Isometric tension following pre-treatment with sugar, molecule OCC1OC(OC2C(CO)OC(OC3C(CO)OC(O)C(O)C3O)C(O)C2O)C(O)C(O)C1O (centres unmarked) : ____
Ans. 58±17 % of baseline

* * *

# System: nitric-oxide guanosine 3′,5′cyclic monophosphate pathway
# METHOD_SUMMARY: Effect of NOS, guanylyl cyclase and PKG inhibitors on lysozyme's myocardial depressant effect in right ventricular trabecular preparation
# Assay type: cell-based, dog
# RECORDED_CONDITIONS: muscle incubated with inhibitor about one hour before lysozyme
READOUT_TYPE: Effect on lysozyme's myocardial depressant effect

>  <COMPOUND>
O=c1onc2cnc3ccccc3n12

>  <RESULT>
blocked

$$$$
>  <COMPOUND>
O=c1c2nc(Br)n(C3OC4COP([O-])(=S)OC4C3O)c2nc2[nH]c(-c3ccccc3)cn12.[Na+] (single isomer, unassigned)

>  <RESULT>
blocked

$$$$
